Origin of measurements: ChEMBL document CHEMBL4689842

Below, each entry is listed alongside its reported Population Fragmented Nuclei (%).
Test system: U2OS
Assay: Multiplex assay against U2OS
Format: toxicity, cell-based
Details: human, 24 h, 1 µM, compound concentration 1 uM, replicate 2

>  <MOLECULE_SMILES>
C[C@@H](Oc1cc(-n2cnc3ccc(CN4CCN(C)CC4)cc32)sc1C(N)=O)c1ccccc1C(F)(F)F

>  <Population Fragmented Nuclei (%)>
14

$$$$
>  <MOLECULE_SMILES>
CC[C@@H]1C(=O)N(C)c2cnc(Nc3ccc(C(=O)NC4CCN(C)CC4)cc3OC)nc2N1C1CCCC1

>  <Population Fragmented Nuclei (%)>
21

$$$$
>  <MOLECULE_SMILES>
Cc1c(Nc2ccc(S(=O)(=O)N3CCN(C)CC3)cc2F)nc2ccc(-c3cnn(C4CC4)c3)cn2c1=O

>  <Population Fragmented Nuclei (%)>
4

$$$$
>  <MOLECULE_SMILES>
Oc1cccc(-c2nc(N3CCOCC3)c3oc4ncccc4c3n2)c1

>  <Population Fragmented Nuclei (%)>
14

$$$$
>  <MOLECULE_SMILES>
CCOc1ccn(-c2ccc(F)cc2)c(=O)c1C(=O)Nc1ccc(Oc2ccnc(N)c2Cl)c(F)c1

>  <Population Fragmented Nuclei (%)>
6

$$$$

----------
System: U2OS
Experiment: Multiplex assay against U2OS
Assay type: toxicity, cell-based
Details: human, 12 h, 10 µM, compound concentration 10 uM, replicate 2
Below: a set of entries, each annotated with reported Population Pyknosed Nuclei (%).

>  <COMPOUND>
Cc1ccc(S(=O)(=O)NC2c3ccccc3Oc3ccccc32)cc1

>  <SYSTEM>
U2OS

>  <Population Pyknosed Nuclei (%)>
23

$$$$
>  <COMPOUND>
N#Cc1cccc(C(=O)Nc2cc(-c3ccccc3)nn2-c2ccccc2)c1

>  <SYSTEM>
U2OS

>  <Population Pyknosed Nuclei (%)>
30

$$$$
>  <COMPOUND>
CN(c1cc(C(F)(F)F)nc(OCCC(=O)O)n1)c1cccc2c1CCC2

>  <SYSTEM>
U2OS

>  <Population Pyknosed Nuclei (%)>
0

$$$$
>  <COMPOUND>
CC[C@H](Nc1ncnc2[nH]cnc12)c1nc2cccc(F)c2c(=O)n1-c1ccccc1

>  <SYSTEM>
U2OS

>  <Population Pyknosed Nuclei (%)>
2

$$$$
>  <COMPOUND>
CCOc1ccn(-c2ccc(F)cc2)c(=O)c1C(=O)Nc1ccc(Oc2ccnc(N)c2Cl)c(F)c1

>  <SYSTEM>
U2OS

>  <Population Pyknosed Nuclei (%)>
4

$$$$
>  <COMPOUND>
Oc1cccc(-c2nc(N3CCOCC3)c3oc4ncccc4c3n2)c1

>  <SYSTEM>
U2OS

>  <Population Pyknosed Nuclei (%)>
41

$$$$
>  <COMPOUND>
c1ccc(-c2oc3ncnc(NC[C@@H]4CCCO4)c3c2-c2ccccc2)cc1

>  <SYSTEM>
U2OS

>  <Population Pyknosed Nuclei (%)>
14

$$$$
>  <COMPOUND>
Cc1c(P(=S)(c2ccccc2)c2ccccc2)n2ccccc2[n+]1C/C=C/c1ccccc1.[Br-]

>  <SYSTEM>
U2OS

>  <Population Pyknosed Nuclei (%)>
68

$$$$
>  <COMPOUND>
CCCCCNC(=N)N/N=C/c1c[nH]c2ccc(OC)cc12.O=C(O)/C=C\C(=O)O [TEGASEROD MALEATE]

>  <SYSTEM>
U2OS

>  <Population Pyknosed Nuclei (%)>
73

$$$$
>  <COMPOUND>
CC(C)[C@H](CO)Nc1nc(Nc2cccc(Cl)c2)c2ncn(C(C)C)c2n1

>  <SYSTEM>
U2OS

>  <Population Pyknosed Nuclei (%)>
6

$$$$

----------
Test system: U2OS
Test: Incucyte cell viability with U2OS; note: filed as whole numbers so only -1 and 0 and 1 occur
Assay type: toxicity, cell-based
Conditions: human, 24 h, 10 µM, compound concentration 10 uM, replicate number 2, timepoint 24 hours
Reported values of Growth Rate for individual entries
RECORDED_METRIC: Growth Rate

>  <MOLECULE>
CCCc1cc(C)[nH]c(=O)c1CNC(=O)c1cc(-c2ccc(N3CCN(C(C)C)CC3)nc2)cc2c1cnn2C(C)C

>  <SYSTEM>
U2OS

>  <REPORTED_MEASUREMENT>
1

$$$$
>  <MOLECULE>
Cc1ccc(S(=O)(=O)NC2c3ccccc3Oc3ccccc32)cc1

>  <SYSTEM>
U2OS

>  <REPORTED_MEASUREMENT>
0

$$$$
>  <MOLECULE>
CCCCN(Cc1ccccc1)C(=O)c1ccc(S(=O)(=O)Nc2ccccc2)cc1

>  <SYSTEM>
U2OS

>  <REPORTED_MEASUREMENT>
0

$$$$
>  <MOLECULE>
CC[C@@H]1C(=O)N(C)c2cnc(Nc3ccc(C(=O)NC4CCN(C)CC4)cc3OC)nc2N1C1CCCC1 [BI-2536]

>  <SYSTEM>
U2OS

>  <REPORTED_MEASUREMENT>
1

$$$$

----------
Tested on: HEK-293T
Experiment: Incucyte cell viability with HEK293T; note: filed as whole numbers so only -1 and 0 and 1 occur
Type: toxicity, cell-based
Settings: human, 6 h, 10 µM, compound concentration 10 uM, replicate number 1, timepoint 6 hours
In this section we review reported Growth Rate values for a set of compounds.
RECORDED_METRIC: Growth Rate

>  <COMPOUND>
Cc1ccc2[nH]c(CNCCCc3ccncc3)cc(=O)c2c1 [UCSF924NC]

>  <REPORTED_MEASUREMENT>
0

$$$$
>  <COMPOUND>
C/C(=N\NC(=O)[C@@H]1C(=O)NC[C@H]1c1ccccc1)c1cccc(Br)c1

>  <REPORTED_MEASUREMENT>
0

$$$$
>  <COMPOUND>
COc1cc(C#N)ccc1S(=O)(=O)Nc1ccc2c(c1)cc(C)c(=O)n2C

>  <REPORTED_MEASUREMENT>
0

$$$$
>  <COMPOUND>
CC(C)(Cc1ccccc1)NCC(O)c1ccc(O)c(NS(C)(=O)=O)c1.Cl (centres undefined) [ZINTEROL HYDROCHLORIDE]

>  <REPORTED_MEASUREMENT>
1

$$$$
>  <COMPOUND>
Cl.NC[C@@H]1O[C@H](C23CC4CC(CC(C4)C2)C3)Cc2c1ccc(O)c2O

>  <REPORTED_MEASUREMENT>
0

$$$$
>  <COMPOUND>
COc1cccc(-c2c(C)n(Cc3c(F)cccc3C(F)(F)F)c(=O)n(C[C@H](NCCCC(=O)[O-])c3ccccc3)c2=O)c1F.[Na+] [ELAGOLIX SODIUM]

>  <REPORTED_MEASUREMENT>
1

$$$$
>  <COMPOUND>
NC(=O)[C@@H]1CCCN1C(=O)[C@H](Cc1cnc[nH]1)NC(=O)[C@@H]1CCC(=O)N1

>  <REPORTED_MEASUREMENT>
1

$$$$
>  <COMPOUND>
Cc1ccc(NC(=O)Nc2cc(C(F)(F)F)ccc2F)cc1Nc1ccc2c(c1)NC(=O)/C2=C\c1ccc[nH]1

>  <REPORTED_MEASUREMENT>
0

$$$$
>  <COMPOUND>
CCCCN(CC)c1nc(C)nc2c1c(C)cn2-c1c(C)cc(C)cc1C.Cl

>  <REPORTED_MEASUREMENT>
0

$$$$

----------
Test system: Fibroblast
Assay: Multiplex assay against human fibroblast
Assay type: toxicity, cell-based
Conditions: 12 h, 10 µM, compound concentration 10 uM, replicate 1
Total Cell Count strictly less than 200 = yes. Otherwise no.

>  <MOLECULE>
CCOc1ccn(-c2ccc(F)cc2)c(=O)c1C(=O)Nc1ccc(Oc2ccnc(N)c2Cl)c(F)c1

>  <LABEL_VALUE>
no

$$$$
>  <MOLECULE>
CC(C)[C@H](CO)Nc1nc(Nc2cccc(Cl)c2)c2ncn(C(C)C)c2n1

>  <LABEL_VALUE>
yes

$$$$
>  <MOLECULE>
N#Cc1cccc(C(=O)Nc2cc(-c3ccccc3)nn2-c2ccccc2)c1

>  <LABEL_VALUE>
yes

$$$$
>  <MOLECULE>
CC[C@@H]1C(=O)N(C)c2cnc(Nc3ccc(C(=O)NC4CCN(C)CC4)cc3OC)nc2N1C1CCCC1

>  <LABEL_VALUE>
no

$$$$
>  <MOLECULE>
CN1C(=O)[C@@H](NC(=O)c2cc3ccccc3[nH]2)N=C(c2ccccc2)c2ccccc21 [DEVAZEPIDE]

>  <LABEL_VALUE>
yes

$$$$
>  <MOLECULE>
CC(/C=C1\SC(=S)N(CCCC(=O)Nc2ccc(C(=O)O)c(O)c2)C1=O)=C\c1ccccc1

>  <LABEL_VALUE>
no

$$$$

----------
Test system: Fibroblast
Assay: Multiplex assay against human fibroblast
Format: toxicity, cell-based
Conditions: 48 h, 1 µM, compound concentration 1 uM, replicate 1
Documented Population Membrane Permeable-Phenotype (%) across a set of compounds
RECORDED_METRIC: Population Membrane Permeable-Phenotype (%)

>  <COMPOUND>
CC(C)c1cc(Nc2nc(N3CCC[C@H](N)C3)ncc2C(N)=O)cc(C(C)C)n1

>  <REPORTED_MEASUREMENT>
34

$$$$
>  <COMPOUND>
CN1C(=O)[C@@H](NC(=O)c2cc3ccccc3[nH]2)N=C(c2ccccc2)c2ccccc21 [DEVAZEPIDE]

>  <REPORTED_MEASUREMENT>
36

$$$$
>  <COMPOUND>
CN(c1cc(C(F)(F)F)nc(OCCC(=O)O)n1)c1cccc2c1CCC2

>  <REPORTED_MEASUREMENT>
32

$$$$
